assay: soluble on expression in E. coli; label from the status in PepcDB or PDB records

>  <Sequence code>
MIMIFTSSCCDNLSIDEIIERAEKGDCEAQYIVGFYYNRDSAIDSPDDEKAFYWLKLAAEQGHCEAQYSLGQKYTEDKSRHKDNEQAIFWLKKAALQGHTFASNALGWTLDRGEAPNYKEAVVWYQIAAESGMSYAQNNLGWMYRNGNGVAKDYALAFFWYKQAALQGHSDAQNNLADLYEDGKGVAQNKTLAAFWYLKSAQQGNRHAQFQIAWDYNAGEGVDQDYKQAMYWYLKAAAQGSVGAYVNIGYMYKHGQGVEKDYQAAFEWFTKAAECNDATAWYNLAIMYHYGEGRPVDLRQALDLYRKVQSSGTRDVSQEIRETEDLLLEHHHHHH

>  <soluble on expression in E. coli>
not soluble

$$$$
>  <Sequence code>
QGTRVTLKVDKEYQQALSRGHSAGHLAYLALNKVLAASYWRKDADRKDPHGNYDFNSYAQEASFVTPDKCLDTYRLGKTLRKRGLNSAEMLSDLEKIEGQVNAQLKFWLERDAAIIMDCHGDNLTDSRYWKCDLGEGELAVIPCGGTHAEHLSDFGSIHVKLVEMDSQTIEMHTDVIACFSN

>  <soluble on expression in E. coli>
not soluble

$$$$

###

assay: soluble on expression in E. coli; label from the status in PepcDB or PDB records

>  <Sequence code>
MSLTVRLRPHHLLCMLTYIGKGYTSGFVENYDRVAFRLNAGEDIELVEGADDVCEGLLCESHAHCFNDGIVQRDETARLSVSTLLGETLIAGKRLRVTPDFLAKMRLAFAAGDIRQACRGCQWIKLCDRIAASGFAGVKIGVPSQVVPKDATRHPMLRPKYGPSGRKLEGHHHHHH

>  <soluble on expression in E. coli>
not soluble

$$$$
>  <Sequence code>
MGSDKIHHHHHHMKKKSMIVLTSAFVLLSAFSCGGGGKATGTNEQSEKVVVNVPQFDADSAYLYVKNQVDFGPRVPNTKEHVACGNYLAGKLEAFGAKVTNQYADLIAYDGTLLKARNIIGSYKPESKKRIALFAHWDTRPWADNDADEKNHHTPILGANDGASGVGALLEIARLVNQQQPELGIDIIFLDAEDYGTPQFYEGKHKEEAWCLGSQYWSRNPHVQGYNARFGILLDMVGGENSVFLKEGYSEEFAPDINKKVWKAAKKAGYGKTFIDERGDTITDDHLFINRLARIKTIDIIPNDPETGFPPTWHTIHDNMDHIDKNTLKAVGQTVLEVIYNEK

>  <soluble on expression in E. coli>
not soluble

$$$$

###

assay: soluble on expression in E. coli; label from the status in PepcDB or PDB records

>  <Sequence code>
MAHHHHHHMAVNARHDLLYECLGLVYELYGGLAEDLQELHDDPLHPHFHRRIARIKRDRERIATELDKRYAKLHPTVKTVYDAFLVRRYYHLADWIEHVERKRERLINDLSPDVMEKTMRMRGIAEQYLRHLRALEHALYEDPLMGLLGGDRGTNVLDQYTPGELAMLRQKAAYFRNMRRFGANQLDADMHTH

>  <soluble on expression in E. coli>
not soluble

$$$$
>  <Sequence code>
GPGSMSTTSSPDEASCDVEKEGKGISPVTRTGKRFAECALMDLPDKYSSAFPYLRGARLFFFDVVSKLNRIGARNKRVVFVTDYTIGVASKRGHVSRCAKVEDISELICDAQTRALGVRMRSRPFAIVPKDFSRWNCFHEMPVDLLLHATSAAQYEALINVLSFVHHTSTHEALLCRSLKQYETWKASLVLAPDGSRVKKAVQYYAIPVTPSERSTDAATLSATRSQETSASLSAVRAPRQVALLSAGDSASRFTSGPDVSATAPKLRHWSSLGASSSFTPSGVGGHRTALGLSPFSLSPSPAPPLVEFSRDIEAVPTSATRRGVNPLLKADRKAPNAS

>  <soluble on expression in E. coli>
not soluble

$$$$
>  <Sequence code>
MSLDTMIASLEQSKKRAEEELSETESIRKEAEKLHKELQQQIIELNSKKDKMLEEAEQQAAEKVKAAMKEAEDIIHELRTIKEEHKSFKDHELINAKKRLEGAMPAFEKSKKPEKPKTQKRDFKPGDEVKVLTFGQKGTLLEKTGGNEWNVQIGILKMKVKEKDLEFIKSAPEPKKEKMITAVKGKDYHVSLELDLRGERYENALSRVEKYLDDAVLAGYPRVSIIHGKGTGALRKGVQDLLKNHRSVKSSRFGEAGEGGSGVTVVELKEGHHHHHH

>  <soluble on expression in E. coli>
soluble

$$$$
>  <Sequence code>
GPGSMSAPTPRTGIIAGFNKGHVTTRRPRQPSPNDRFAVPHKHLRAVKAIIADLVGLSPLEKRVQEFLRVGKEKRALKYCKKRLGDFTAAKKKRSKMEEALRHATKKHH

>  <soluble on expression in E. coli>
soluble

$$$$
>  <Sequence code>
MSLNLAKRILQGEQLTKETVLKIYEDTNIDTLDLLNEAYILRKHYFGKKVKLNMILNAKSGICPENCGYCGQSRDIKQKQRYALIPEEQIIDGAKVAHDNHIGTYCIVMSGRGPSDKEVDHISNTVRTIKSQHPQLKICACLGLTNDEQAKKLKSAGVDRYNHNINTSENYHDNVVTTHSYKDRTDTIELMKANNISPCSGVICGMGESNQDIVDMAFALKEMDADSIPINFLHPIKGTKFGSMDDLTPMKCLRIVALFRLINPTKEIRIAGGREVNLRSLQPLALKAANSIFVGDYLITGGQPNQLDYDMINDLGFEIDYDTCENKENKNDVSRANEGHHHHHH

>  <soluble on expression in E. coli>
soluble

$$$$
>  <Sequence code>
MTTMTNSLISNSVSSVPESLFSSASIHRPVAINPAMLAQFSINLPVLPFESSASLGTSTTSSSRCSSTESSAAPGKIRRGRPQQEIADGQDAHSQKKRHRRLYARQYRAQMRQKVENVKSLHDEKEQLELEVKALRQAVSGLQQENAQKDFLISILQLNNQINHS

>  <soluble on expression in E. coli>
not soluble

$$$$
>  <Sequence code>
MKAIILAGGQSERFGEPKAFAQINAQPFYKRIIDVLEGTNMFNQIIISTNETLASQFDHSDIIIDEDQNKDKGPLAGIQSVIQHYESEELFFVVSVDTPMISQKAVSKLYQFMVEHLIEDQLDIAGFKEKGRPIPTIAFYSPHTLPYIDDALNSNDYSLKSVYNKVKSDWLDVNLIESPDYWYKNINYQQDLDSLQQDILNR

>  <soluble on expression in E. coli>
not soluble

$$$$

###

test: soluble on expression in E. coli; label from the status in PepcDB or PDB records
Measurement name: soluble on expression in E. coli

>  <Sequence code>
MGSDKIHHHHHHACSDDDKVSISTVGITTTVDTTIEGLQLTGGTYTFENVNTSVKTDITYPAQSIELADGLYNVTFIGKGTYSQNGTPVEVDVQGVQQNVAVSGGSYKLELKVHVLNTGDPDFVIAEIFIPGTYNEAGKQYNGDQYIRIYNNSDKVLYADGLIFMESQFQTTQKYQSVDPDIMDEAIAVGSVVAVPGSGTDYPVQPGESFILCDNAINHKEANPNSIDLSKANFEWYIESKQDVDNPAVPNLDVYYCYSKTIWVLNKQGNRAYAIGRLPKSMTKEKYISDYAYNYTYIMQNGTASKPQSKYKFPNEWVIDAVNVGASNEWQWNVTSTGLDMGHTYIGMNNTVAENIGKCVMRKAAYKDGDREVLQDTNNSTVDFTPAATPSLFNK

>  <Measurement name>
soluble on expression in E. coli

>  <Measured value>
not soluble

$$$$
>  <Sequence code>
RHRCIGLTVETKPDWFFEREIDEALAYGTTKVELGVQNIDDRILAINNRGHTVADIARSTQLARDAGLKIVYHIMPGMYGSSFEKDLKSFDLMINDERFKPDMLKIYPTLVTQGTGLYNLWKNGKYRPYTTAETVDLIVEFMRRMPDWIRIQRIQR

>  <Measurement name>
soluble on expression in E. coli

>  <Measured value>
not soluble

$$$$
>  <Sequence code>
MSLSDKDKRRLEYKELAKESKAKSKMLAASQGKGLVAKIAIGSALGNIIGNAMSKAAGGLLGFAKKAVEEKSKTNRAKLLNSAFFEKDERNTIMGTLKGMKGFERDLEKEEFLNQASVFKGTLRDLGMLNLTNLKKAVEFSAALKSSGAMSGEDAVKAVNSLLSGEGDELFDLLKKSGVGDKYIEDAKKAWQSGAEVDLESRITMLVEMFKDFKSFGITKKADTKEEIDSNLASAEQTLSNLTTTVLDPLLKFIKMVTGLSEGHHHHHH

>  <Measurement name>
soluble on expression in E. coli

>  <Measured value>
soluble

$$$$
>  <Sequence code>
GAMAEEATFTANFKDTDLKSFIETVGANLNKTIIMGPGVQGAVSIRTMTPLNERQYYQLFLNLLEAQGYAVVPMENDVLKVVKSSAAKVEPLPLVGEGSDNYAGDEMVTKVVPVRNVSVRELAPILRQMIDSAGSGNVVNYDPSNVIMLTGRASVVERLTEVIQRVDHAGNRTEEVIPLDNASASEIARVLESLTKNSGENQPATLKSQIVADERTNSVIVSGDPATRDKMRRLIRRLDSE

>  <Measurement name>
soluble on expression in E. coli

>  <Measured value>
soluble

$$$$

Values from the DeepSol protein solubility set
